System: SW-620
Experiment: NCI tumour cell line growth inhibition, 48 h
Activity calls are given as the source filed them. Rule as the data show it: active = GI50 up to about 1.1 µM and inactive = higher.
GI50 for assorted compounds

Here are 8 compounds together with their reported answers.
[
  {
    "compound": "Cc1ccc(S(=O)(=O)n2cc(-c3cc(C(F)(F)F)ccn3)c3cc(Br)ccc32)cc1",
    "GI50": "74.6 µM (inactive)"
  },
  {
    "compound": "Cn1c2ccccc2c(=O)c2ccc(Cl)cc21",
    "GI50": "> 10 µM (inactive)"
  },
  {
    "compound": "Cn1c(=O)n(CC2CS2)c2ccccc21 (centres undefined)",
    "GI50": "> 100 µM (inactive)"
  },
  {
    "compound": "O=C(Nc1ccccc1)C(=O)C(C(=O)c1ccccc1F)C1OC(=O)c2ccccc21 (centres undefined)",
    "GI50": "41.9 µM (inactive)"
  },
  {
    "compound": "Nc1nc(Cl)c2ncn(Cc3ccc(CCl)cc3)c2n1",
    "GI50": "3.37 µM (inactive)"
  },
  {
    "compound": "CC1CCC2c3c([nH]c4ccccc34)C3C(=O)N(c4ccccc4)C(=O)C3C2C1 (centres undefined)",
    "GI50": "> 250 µM (inactive)"
  },
  {
    "compound": "O=S(=O)(NC1CCCCC1)c1ccc2c(c1)OCCOCCOCCOCCO2",
    "GI50": "> 100 µM (inactive)"
  },
  {
    "compound": "Cc1ccc(OCC2OC(C#N)C(Oc3ccc(C)cc3)C2Oc2ccc(C)cc2)cc1 (centres undefined)",
    "GI50": "> 100 µM (inactive)"
  }
]

q: Look up and report measured GI50 for this entry: [O-][N+]1(CC[N+]2([O-])CCCCC2)CCCCC1
a: > 100 µM (inactive)

q: Look up and report measured GI50 for this entry: Cc1ccc(S(=O)(=O)NC(=O)NCCc2c[nH]cn2)cc1
a: > 100 µM (inactive)

q: Look up and report measured GI50 for this entry: O=C(c1cccc(OCc2ccccc2)c1OCc1ccccc1)N1CCSC1=S
a: 43.4 µM (inactive)

q: Look up and report measured GI50 for this entry: CN1CCCC(OC(=O)c2cc3cc(CCl)ccc3oc2=O)C1 (centres undefined)
a: 22.7 µM (inactive)

q: Look up and report measured GI50 for this entry: N#CC1(C#N)C2=C(CCCC2)NC(c2ccc(Br)cc2)C1(C#N)C#N (centres undefined)
a: 1.31 µM (inactive)

q: Look up and report measured GI50 for this entry: Cn1c(=O)sc2cc(C(=S)N3CCOCC3)ccc21
a: > 100 µM (inactive)

###

System: HOP-62
Experiment: NCI tumour cell line growth inhibition, 48 h
Activity calls are given as the source filed them. No stated cut-off is given here; in the data, active = GI50 up to about 1.1 µM and inactive = higher.
Return exactly one item of active, inactive

[
  {
    "compound": "Cc1cc(N(CCC#N)CCC#N)ccc1/N=N/c1cccc(C(=O)O)c1",
    "groupLabel": "inactive"
  },
  {
    "compound": "C[P+](C)(C)c1ccccc1",
    "groupLabel": "inactive"
  },
  {
    "compound": "COC(=O)CSC1CC(=O)c2c(Cl)sc(Cl)c21 (stereo unspecified)",
    "groupLabel": "inactive"
  }
]

q: Fill in: this test's call for C=C1C(O)CC[C@]2(C)C1C1OC(C)(C)O[C@]13CC(=O)C(C)=C([C@H]1OC(C)(C)OC12)C3(C)C (stereo partly specified) is ___
a: inactive

q: Fill in: this test's call for CN1OC(=O)N(C)C1c1ccccc1 (stereo unspecified) is ___
a: inactive

q: Fill in: this test's call for O=C(CN1CCN(c2cccc(Cl)c2)CC1)N1CCc2c([nH]c3ccccc23)C1c1cccnc1 (stereo unspecified) is ___
a: inactive

q: Fill in: this test's call for C=C(C)C1CC=C(C)C(=O)C1 (stereo unspecified) is ___
a: inactive

q: Fill in: this test's call for COc1cc(C2c3cc4c(cc3[C@@H](Nc3ccc(C#N)cc3)C3COC(=O)[C@H]23)OCO4)cc(OC)c1O (stereo partly specified) is ___
a: active

q: Fill in: this test's call for CC(C)(C)[Si](C)(C)OCC1OC(n2cnc3c(N)ncnc32)C2OC(=S)OC12 (stereo unspecified) is ___
a: inactive

q: Fill in: this test's call for CC1CCC2c3c([nH]c4ccccc34)C3C(=O)N(c4ccccc4)C(=O)C3C2C1 (stereo unspecified) is ___
a: inactive
